Let's look at some molecules and their measured Ki.
Biological target: OXA-48 (Klebsiella pneumoniae, UniProt Q6XEC0)
Sequence (Q6XEC0 23-265, looked up): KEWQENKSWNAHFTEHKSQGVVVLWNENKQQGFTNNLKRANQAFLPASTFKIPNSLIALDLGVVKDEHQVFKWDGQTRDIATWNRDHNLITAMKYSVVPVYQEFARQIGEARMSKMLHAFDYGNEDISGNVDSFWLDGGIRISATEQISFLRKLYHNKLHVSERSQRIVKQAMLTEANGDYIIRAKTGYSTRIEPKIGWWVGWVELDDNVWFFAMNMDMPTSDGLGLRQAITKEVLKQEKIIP
Assay: Inhibition of purified beta-lactamase, nitrocefin cleavage
Format: biochemical
Conditions: read-out: Ki (OXA-48, NCF)

Molecule: CC(=O)Nc1nnc(S[C@H]2Cc3cccc(C(=O)O)c3OB2O)s1 [Compound 7]
Reported Value: < 100 nM

Molecule: CO[C@H]1Cc2ccc(F)c(C(=O)O)c2OB1O [Compound 19]
Reported Value: < 100 nM

Molecule: Cn1cnnc1S[C@H]1Cc2ccc(F)c(C(=O)O)c2OB1O [Compound 24]
Reported Value: < 100 nM

Molecule: NC(=O)CC1Cc2cccc(C(=O)O)c2OB1O (stereo not shown) [Compound 22]
Reported Value: < 100 nM

Molecule: CSc1ccc2c(c1C(=O)O)OB(O)[C@@H](Sc1nncn1N)C2 [Compound 25]
Reported Value: < 100 nM

Molecule: NC(=O)CS[C@H]1Cc2cccc(C(=O)O)c2OB1O [Compound 3]
Reported Value: < 100 nM

Molecule: O=C(O)[C@H]1/C(=C/CO)O[C@@H]2CC(=O)N21 [Clavulanic acid, reference compound]
Reported Value: > 1000 nM

Molecule: Nc1nnc(S[C@H]2Cc3cccc(C(=O)O)c3OB2O)s1 [Compound 4]
Reported Value: < 100 nM

Molecule: CS[C@H]1Cc2cccc(C(=O)O)c2OB1O [Compound 16]
Reported Value: < 100 nM

Molecule: CO[C@H]1Cc2cccc(C(=O)O)c2OB1O [Compound 17]
Reported Value: < 100 nM

If you can, please state the reported Ki value of O=C(O)c1cccc2c1OB(O)[C@@H](Sc1nnc[nH]1)C2 [Compound 2] . < 100 nM

Quick one: Ki for O=C(O)c1cccc2c1OB(O)[C@@H](Sc1nccs1)C2 [Compound 11] ? < 100 nM

Look up Ki: C[C@]1(Cn2ccnn2)[C@H](C(=O)O)N2C(=O)C[C@H]2S1(=O)=O [Tazobactam, reference compound] 100 to 1000 nM

Bench note: what Ki did Nn1cnnc1S[C@H]1Cc2cccc(C(=O)O)c2OB1O [Compound 14] show? < 100 nM

Look up Ki: O=C(O)c1cccc2c1OB(O)[C@@H](OC1CNC1)C2 [Compound 18] < 100 nM

Item Nc1nnc(S[C@H]2Cc3ccc(F)c(C(=O)O)c3OB2O)s1 [Compound 23] has what recorded Ki? < 100 nM

Query (molecule): Cn1cnnc1S[C@H]1Cc2cccc(C(=O)O)c2OB1O [Compound 15] ; field requested: Ki < 100 nM

Data request, read-out Ki, for NC(=O)CCS[C@H]1Cc2cccc(C(=O)O)c2OB1O [Compound 9] < 100 nM

What value of Ki has been recorded for this entry: Nn1cnnc1S[C@H]1Cc2ccc(F)c(C(=O)O)c2OB1O [Compound 20] 100 to 1000 nM

The origin of these recorded values is patent US9132140B2.
